Recorded measurements of human MASP2 IC50, one per entry
- Measured on: recombinant human MASP2 active protease (amino acids 297-686, C-terminal His Tag) (human, UniProt O00187 297-686)
- Sequence (O00187 other isoform, or with tags, fused parts or gaps limits assumed): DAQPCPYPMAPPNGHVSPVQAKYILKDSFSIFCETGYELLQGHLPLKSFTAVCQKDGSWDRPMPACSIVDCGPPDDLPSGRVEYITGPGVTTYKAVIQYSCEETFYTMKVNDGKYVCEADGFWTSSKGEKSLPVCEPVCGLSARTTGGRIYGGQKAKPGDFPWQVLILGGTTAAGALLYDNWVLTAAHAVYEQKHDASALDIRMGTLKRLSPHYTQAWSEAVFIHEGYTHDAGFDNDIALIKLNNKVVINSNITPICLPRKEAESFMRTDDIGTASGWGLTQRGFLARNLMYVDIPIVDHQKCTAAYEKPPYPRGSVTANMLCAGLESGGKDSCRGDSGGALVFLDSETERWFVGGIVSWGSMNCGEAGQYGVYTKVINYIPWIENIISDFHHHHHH
- Experiment summary: cell-based or functional assay
Bridge positions count the residues as written; N and C are the ends. Square brackets hold non-standard residues; d marks the D form. Ends that are not written are not given here. Oic = O=C(O)[C@@H]1C[C@@H]2CCCC[C@@H]2N1; tBuAla = CC(C)(C)C[C@H](N)C(=O)O; Pen = CC(C)(S)[C@H](N)C(=O)O; NMeA = CN[C@@H](C)C(=O)O; Orn = NCCC[C@H](N)C(=O)O

{"Binder": "AICSRSLP[rel‑(1R,3R,5R,6R)‑6‑(Trifluoromethyl)‑2‑azabicyclo(3.1.0)hexane‑3‑carboxylic acid]ICIPD-NH2 (disulfide 3-11)", "human MASP2 IC50 (nM)": 2800}
{"Binder": "[NMeA]ICSRS[tBuAla]P[Oic]I[Pen]I-NH2 (disulfide 3-11; N-terminus assumed; SMILES CC[C@H](C)[C@H](NC(=O)[C@H]1NC(=O)[C@H]([C@@H](C)CC)NC(=O)[C@@H]2C[C@@H]3CCCC[C@@H]3N2C(=O)[C@@H]2CCCN2C(=O)[C@H](CC(C)(C)C)NC(=O)[C@H](CO)NC(=O)[C@H](CCCNC(=N)N)NC(=O)[C@H](CO)NC(=O)[C@@H](NC(=O)[C@@H](NC(=O)[C@H](C)NC)[C@@H](C)CC)CSSC1(C)C)C(N)=O) [((N-Me)A)-IC+SRS-((tBu)A)-P-(Oic)-I-(Pen)+I-NH2]", "human MASP2 IC50 (nM)": 76}
{"Binder": "[Orn]ICSRS[tBuAla]PPI[Pen]IP-NH2 (disulfide 3-11; N-terminus assumed; SMILES CC[C@H](C)[C@H](NC(=O)[C@@H](N)CCCN)C(=O)N[C@H]1CSSC(C)(C)[C@@H](C(=O)N[C@H](C(=O)N2CCC[C@H]2C(N)=O)[C@@H](C)CC)NC(=O)[C@H]([C@@H](C)CC)NC(=O)[C@@H]2CCCN2C(=O)[C@@H]2CCCN2C(=O)[C@H](CC(C)(C)C)NC(=O)[C@H](CO)NC(=O)[C@H](CCCNC(=N)N)NC(=O)[C@H](CO)NC1=O) [(Orn)-IC+SRS-((tBu)A)-PPI-(Pen)+IP-NH2]", "human MASP2 IC50 (nM)": 93}
